biological target: huPPARγ (Homo sapiens); assay: Cotransfection assay in CV-1 cells, huPPARγ; assay type: cell-based; set-up: Appropriate PPARs and RXRα were constitutively expressed using plasmids containing the CMV promoter; expressed in transfected cells; host or cells: CV-1 cells; conditions: AOX PPRE luciferase reporter, relative to PPARγ agonist reference molecule, read-out: huPPARγ CTF Efficacy
Sequence (P37231 whole entry): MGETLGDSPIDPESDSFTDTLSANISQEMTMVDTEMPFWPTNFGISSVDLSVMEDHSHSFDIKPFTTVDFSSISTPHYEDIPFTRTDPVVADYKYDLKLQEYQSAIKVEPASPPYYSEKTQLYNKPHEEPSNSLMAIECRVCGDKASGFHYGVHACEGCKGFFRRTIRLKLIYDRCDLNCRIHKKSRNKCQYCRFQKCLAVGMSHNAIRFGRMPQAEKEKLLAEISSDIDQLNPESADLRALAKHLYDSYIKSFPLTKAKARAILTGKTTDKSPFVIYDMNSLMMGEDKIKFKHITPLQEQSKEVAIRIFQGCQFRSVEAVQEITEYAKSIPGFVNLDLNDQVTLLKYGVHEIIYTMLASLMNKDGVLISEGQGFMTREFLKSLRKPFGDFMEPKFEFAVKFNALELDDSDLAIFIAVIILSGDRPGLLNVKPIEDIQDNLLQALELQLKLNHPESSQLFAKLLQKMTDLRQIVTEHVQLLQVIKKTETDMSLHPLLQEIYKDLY
Sequence (P19793 whole entry partner): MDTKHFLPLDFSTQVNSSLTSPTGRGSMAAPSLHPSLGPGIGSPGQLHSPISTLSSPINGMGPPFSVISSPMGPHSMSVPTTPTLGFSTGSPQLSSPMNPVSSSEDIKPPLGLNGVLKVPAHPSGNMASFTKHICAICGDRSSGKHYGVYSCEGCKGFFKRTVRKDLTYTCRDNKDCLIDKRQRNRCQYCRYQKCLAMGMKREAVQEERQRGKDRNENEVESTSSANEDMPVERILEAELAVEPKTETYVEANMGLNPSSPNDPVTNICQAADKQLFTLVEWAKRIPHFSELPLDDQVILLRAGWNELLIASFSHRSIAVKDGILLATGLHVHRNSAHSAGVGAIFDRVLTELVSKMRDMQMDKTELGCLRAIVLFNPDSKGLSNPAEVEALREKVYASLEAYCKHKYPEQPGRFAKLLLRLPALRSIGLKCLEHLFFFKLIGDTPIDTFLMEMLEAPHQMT
TEST READOUT: Emax (%)

In the examples that follow, each entry is paired with its recorded Emax.
[[record]]
molecule = "Cc1oc(-c2cccs2)nc1CCOc1ccc(CC(C)(Oc2ccccc2F)C(=O)O)cc1 (centres unmarked)"
test_readout = "Emax"
readout_value = 15

[[record]]
molecule = "Cc1oc(-c2cccc(Br)c2)nc1CCOc1ccc(CC(C)(Oc2ccccc2)C(=O)O)cc1 (centres unmarked)"
test_readout = "Emax"
readout_value = 75

[[record]]
molecule = "Cc1oc(-c2cccs2)nc1CCOc1ccc(CC(C)(Oc2ccc(C(C)(C)C)cc2)C(=O)O)cc1 (centres unmarked)"
test_readout = "Emax"
readout_value = 105

[[record]]
molecule = "Cc1oc(-c2ccccc2)nc1CCOc1ccc(CC(C)(Oc2ccc(Cl)cc2)C(=O)O)cc1 (centres unmarked)"
test_readout = "Emax"
readout_value = 82

[[record]]
molecule = "Cc1oc(C2(C)CCCCC2)nc1CCOc1ccc(CC(C)(Oc2ccccc2)C(=O)O)cc1 (centres unmarked)"
test_readout = "Emax"
readout_value = 73


(A) Cc1oc(C2CCCCC2)nc1CCOc1ccc(CC(C)(Oc2ccc(C3CCCCC3)cc2)C(=O)O)cc1 (centres unmarked)
(B) Cc1oc(-c2cccs2)nc1CCOc1ccc(CC(C)(Oc2cccc(C(F)(F)F)c2)C(=O)O)cc1 (centres unmarked)
(C) Cc1ccc(OC(C)(Cc2ccc(OCCc3nc(C4CCCCC4)oc3C)cc2)C(=O)O)cc1 (centres unmarked)
Given 3 molecules, produce a descending ranking by Emax. # output: labels, in the requested order A, B, C
